Assay: Pharmacokinetic evaluation in SD rats after oral administration by single gavage
Assay type: in vivo
Conditions: rat; female SD rats, PO 75 mg/kg, plasma; read-out: t½ (converted)
Method: 1. […] After collection, the blood samples were placed on ice and the plasma was separated by centrifugation (centrifugation conditions: 8000 rpm, 6 minutes, 2-8° C.). […] Plasma samples were analyzed by the analysis department of the experimental institution using LC-MS/MS for the content of the test compound in the rat plasma. […]

{"columns": ["Compound", "half-life [h]"],
 "data": [
  ["O=C(NCCONc1nonc1/C(=N/O)Nc1ccc(F)c(Br)c1)Nc1cc(F)cc(F)c1 [Compound I-40]", 1.45],
  ["NS(=O)(=O)NCCONc1nonc1/C(=N/O)Nc1ccc(F)c(Br)c1 [Compound I-24]", 2.34],
  ["NS(=O)(=O)NCCNc1nonc1C(=NO)Nc1ccc(F)c(Br)c1 [INCB024360, Epacadostat, reference compound]", 2.51],
  ["NS(=O)(=O)NC1(CONc2nonc2/C(=N/O)Nc2ccc(F)c(Br)c2)CC1 [Compound I-20]", 1.42]
]}

* * *

Here's what we have: IC50 numbers for IDO1 enzyme (Homo sapiens (Human)).

{"columns": ["Molecule", "IC50"],
 "data": [
  ["COC(=O)C(CCONc1nonc1/C(=N/O)Nc1ccc(F)c(F)c1)NS(N)(=O)=O (centres unmarked)", "64 nM"],
  ["O=C(NCCONc1nonc1/C(=N/O)Nc1ccc(F)c(C(F)(F)F)c1)c1ccc(F)cc1", "85 nM"],
  ["O/N=C(\\Nc1ccc(F)c(Br)c1)c1nonc1NOCCONc1nonc1/C(=N/O)Nc1ccc(F)c(Br)c1", "35 nM"],
  ["O=C1NC(=O)C2(CCC(ONc3nonc3/C(=N/O)Nc3ccc(F)c(F)c3)CC2)N1 (centres unmarked)", "66 nM"],
  ["NS(=O)(=O)NOCCONc1nonc1/C(=N/O)Nc1ccc(F)c(Br)c1", "78 nM"],
  ["COC(=O)CSNc1nonc1/C(=N/O)Nc1ccc(F)cc1", "83 nM"],
  ["NS(=O)(=O)NCCCCONc1nonc1/C(=N/O)Nc1ccc(F)c(Br)c1", "92 nM"],
  ["OCCONc1nonc1/C(=N/O)Nc1ccc(F)c(Br)c1", "81 nM"]
]}

* * *

Molecular target: IDO protease in highly expressed HeLa cells (Homo sapiens (Human), UniProt P14902)
Sequence (P14902 whole entry): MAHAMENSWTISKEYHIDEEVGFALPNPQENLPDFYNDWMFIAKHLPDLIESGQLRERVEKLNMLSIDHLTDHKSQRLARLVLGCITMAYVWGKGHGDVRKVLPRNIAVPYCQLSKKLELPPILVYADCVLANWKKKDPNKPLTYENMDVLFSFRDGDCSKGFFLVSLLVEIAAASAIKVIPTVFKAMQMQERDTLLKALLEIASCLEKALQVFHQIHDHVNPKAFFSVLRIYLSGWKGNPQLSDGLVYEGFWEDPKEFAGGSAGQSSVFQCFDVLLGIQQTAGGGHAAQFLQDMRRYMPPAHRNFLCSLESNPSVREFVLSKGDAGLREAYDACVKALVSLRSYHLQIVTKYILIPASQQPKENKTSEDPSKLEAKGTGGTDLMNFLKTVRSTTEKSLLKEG
Test: Inhibitory activity of compounds on IDO protease in highly expressed HeLa cells
Conditions: highly expressed HeLa cell line

{"columns": ["Compound", "IC50, nM"],
 "data": [
  ["NC(CCONc1nonc1/C(=N/O)Nc1ccc(F)c(Br)c1)C(=O)O (stereo not shown)", 35],
  ["NS(=O)(=O)NC1(CONc2nonc2/C(=N/O)Nc2ccc(F)c(Br)c2)CC1", 8],
  ["O=C(CCC1CCC(ONc2nonc2/C(=N/O)Nc2ccc(F)c(F)c2)CC1)Nc1ccc(F)cc1 (stereo not shown)", 21],
  ["NS(=O)(=O)NCCONc1nonc1/C(=N/O)Nc1ccc(F)c(Br)c1", 5],
  ["O/N=C(\\Nc1ccc(F)c(Br)c1)c1nonc1NOCCONc1nonc1/C(=N/O)Nc1ccc(F)c(Br)c1", 38],
  ["CC(N/C(=N\\O)c1nonc1NOCCNS(N)(=O)=O)c1ccccc1 (stereo not shown)", 26],
  ["NS(=O)(=O)NC(CO)CONc1nonc1/C(=N/O)Nc1ccc(F)cc1 (stereo not shown)", 38]
]}
